Molecular target: T1, IRP1 wild-type (Homo sapiens, UniProt P21399 1-889)
T1 sequence: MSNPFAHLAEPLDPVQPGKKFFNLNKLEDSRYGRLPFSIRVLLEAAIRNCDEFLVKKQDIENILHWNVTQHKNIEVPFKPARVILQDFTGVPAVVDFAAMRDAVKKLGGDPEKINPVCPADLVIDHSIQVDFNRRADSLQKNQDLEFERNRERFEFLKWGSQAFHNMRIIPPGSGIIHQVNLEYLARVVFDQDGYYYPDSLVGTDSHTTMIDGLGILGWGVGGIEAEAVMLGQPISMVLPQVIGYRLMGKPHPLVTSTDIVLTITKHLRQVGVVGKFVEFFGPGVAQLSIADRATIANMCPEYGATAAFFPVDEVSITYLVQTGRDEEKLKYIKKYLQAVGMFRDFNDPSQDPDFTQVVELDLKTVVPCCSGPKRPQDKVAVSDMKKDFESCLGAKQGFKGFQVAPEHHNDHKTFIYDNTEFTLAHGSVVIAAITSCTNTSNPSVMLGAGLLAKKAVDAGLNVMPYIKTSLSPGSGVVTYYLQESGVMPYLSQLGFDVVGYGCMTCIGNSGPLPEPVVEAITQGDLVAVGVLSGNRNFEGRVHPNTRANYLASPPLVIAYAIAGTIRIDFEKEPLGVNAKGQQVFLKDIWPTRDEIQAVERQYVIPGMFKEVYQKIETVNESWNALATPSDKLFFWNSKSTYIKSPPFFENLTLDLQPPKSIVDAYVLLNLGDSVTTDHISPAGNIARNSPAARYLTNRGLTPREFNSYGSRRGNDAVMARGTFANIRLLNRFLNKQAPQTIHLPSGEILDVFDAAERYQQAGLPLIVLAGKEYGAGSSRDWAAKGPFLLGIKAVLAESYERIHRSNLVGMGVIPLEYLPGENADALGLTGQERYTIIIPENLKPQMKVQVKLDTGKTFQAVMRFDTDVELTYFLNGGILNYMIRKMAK
Assay: EMSA
outcomeMeasure: Kd
# number then unit; no other words

I am curious: what Kd value has been reported for UUUUUGUUUCCUGCUUCAACAGUGCUUGGACGGAAC (structured_RNA) [wt-IRE (FTH-IRE)] ?
18 nM
